# experimental target: DYRK1A (human)
# measurement notes: KINOMEscan competition binding
# measurement parameters: compound 10.0 µM
readout: kinase still bound, per cent of control
A complete answer gives the number followed by the unit.

# count of solved cases: 3
CCC(=O)N1CCN(c2ccc(-n3c(=O)ccc4cnc5ccc(-c6cnc7ccccc7c6)cc5c43)cc2C(F)(F)F)CC1 : 71%
Nc1ccc(-c2ccc3ncc4ccc(=O)n(-c5cccc(C(F)(F)F)c5)c4c3c2)cn1 : 75%
C[C@@H](Oc1cc(-n2cnc3ccc(CN4CCN(C)CC4)cc32)sc1C(N)=O)c1ccccc1C(F)(F)F : 100%

[in] Look up kinase still bound, per cent of control: `C=CC(=O)Nc1cccc(Nc2nc(N[C@H]3CC[C@H](N(C)C)CC3)nc3c2ncn3C(C)C)c1`
[out] 20%

[in] Continue with `OCCCNc1cc(-c2ccnc(Nc3cccc(Cl)c3)n2)ccn1`
[out] 7.8%

* * *

# experimental target: FGFR2 (human)
# measurement notes: KINOMEscan competition binding
# measurement parameters: compound 10.0 µM
readout: kinase still bound, per cent of control (%)
The answer is to be given in %; state only the numeric part.

# count of solved cases: 3
CN(C)C/C=C/C(=O)Nc1cccc(Nc2ncc3c(n2)N(C)c2ccccc2C(=O)N3C)c1 : 13
O=C(NOC[C@H](O)CO)c1ccc(F)c(F)c1Nc1ccc(I)cc1F : 100
CC[C@@H]1C(=O)N(C)c2cnc(Nc3ccc(C(=O)NC4CCN(C)CC4)cc3OC)nc2N1C1CCCC1 : 100

[in] Look up kinase still bound, per cent of control: COc1cc(C(=O)NC2CCN(C)CC2)ccc1Nc1ncc2c(n1)N(C1CCCC1)C(C)CC(=O)N2C (stereo not given)
[out] 100

[in] Continue with `CCN1CCN(Cc2ccc(Nc3ncc4c(n3)N(C)c3ccccc3C(=O)N4C)cc2C(F)(F)F)CC1`
[out] 50

* * *

# experimental target: HCK (human) (UniProt P08631)
# Sequence (P08631 whole entry, looked up): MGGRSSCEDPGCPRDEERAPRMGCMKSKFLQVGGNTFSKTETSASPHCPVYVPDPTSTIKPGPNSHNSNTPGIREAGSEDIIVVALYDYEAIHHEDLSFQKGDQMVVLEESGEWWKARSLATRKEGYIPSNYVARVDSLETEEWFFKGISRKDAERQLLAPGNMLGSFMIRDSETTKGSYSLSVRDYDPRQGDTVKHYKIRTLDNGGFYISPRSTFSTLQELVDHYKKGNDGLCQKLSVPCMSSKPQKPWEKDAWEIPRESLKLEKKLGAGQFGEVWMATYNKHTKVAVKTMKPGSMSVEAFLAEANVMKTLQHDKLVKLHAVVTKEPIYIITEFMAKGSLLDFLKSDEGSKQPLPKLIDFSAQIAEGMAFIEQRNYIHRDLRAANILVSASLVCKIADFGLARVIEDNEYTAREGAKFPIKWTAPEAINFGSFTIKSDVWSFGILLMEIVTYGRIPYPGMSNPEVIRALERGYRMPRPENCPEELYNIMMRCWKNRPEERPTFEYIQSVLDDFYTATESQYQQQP
# measurement notes: KINOMEscan competition binding
# measurement parameters: compound 10.0 µM
Each record here notes measured kinase still bound, per cent of control.
The answer is to be given in %; state only the numeric part.

Cc1ccc(C(=O)Nc2cccc(C(F)(F)F)c2)cc1Nc1cncc(C(N)=O)c1 : 100
CN(C)C/C=C/C(=O)Nc1cccc(Nc2ncc3c(n2)N(C)c2ccccc2C(=O)N3C)c1 : 13
CC[C@@H]1C(=O)N(C)c2cnc(Nc3ccc(C(=O)NC4CCN(C)CC4)cc3OC)nc2N1C1CCCC1 : 100
O=C(NOC[C@H](O)CO)c1ccc(F)c(F)c1Nc1ccc(I)cc1F : 100

// switching to the query compound
[in] Look up kinase still bound, per cent of control: `COc1cc(N2CCN(C)CC2)ccc1Nc1nc(N)c(C(=O)c2c(Cl)cccc2Cl)s1`
[out] 100

* * *

# experimental target: PRKX (human)
# measurement notes: KINOMEscan competition binding
# measurement parameters: compound 10.0 µM
readout: kinase still bound, per cent of control (%)
The answer is to be given in %; state only the numeric part.

# count of solved cases: 3
Cn1c(=O)n(-c2ccc(C(C)(C)C#N)cc2)c2c3cc(-c4cnc5ccccc5c4)ccc3ncc21 : 100
CCC(=O)N1CCN(c2ccc(-n3c(=O)ccc4cnc5ccc(-c6cnc7ccccc7c6)cc5c43)cc2C(F)(F)F)CC1 : 83
C=CC(=O)Nc1cccc(Nc2nc(N[C@H]3CC[C@H](N(C)C)CC3)nc3c2ncn3C(C)C)c1 : 100

[in] Look up kinase still bound, per cent of control: `Nc1ccc(-c2ccc3ncc4ccc(=O)n(-c5cccc(C(F)(F)F)c5)c4c3c2)cn1`
[out] 100

* * *

# experimental target: CAMK1D (human) (UniProt Q8IU85)
# Sequence (Q8IU85 whole entry, looked up): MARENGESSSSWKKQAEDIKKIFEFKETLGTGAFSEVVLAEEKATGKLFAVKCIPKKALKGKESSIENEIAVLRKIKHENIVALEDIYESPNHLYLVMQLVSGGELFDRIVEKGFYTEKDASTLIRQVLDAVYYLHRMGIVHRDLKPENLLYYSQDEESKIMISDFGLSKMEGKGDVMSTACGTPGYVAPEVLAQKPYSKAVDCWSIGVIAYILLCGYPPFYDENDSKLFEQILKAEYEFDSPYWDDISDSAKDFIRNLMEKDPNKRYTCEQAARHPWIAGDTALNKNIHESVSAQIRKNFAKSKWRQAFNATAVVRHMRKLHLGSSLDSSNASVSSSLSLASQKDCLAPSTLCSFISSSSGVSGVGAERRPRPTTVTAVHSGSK
# measurement notes: KINOMEscan competition binding
# measurement parameters: compound 10.0 µM
readout: kinase still bound, per cent of control (%)
The answer is to be given in %; state only the numeric part.

# count of solved cases: 2
N#Cc1c(NC(=O)c2cccc3ccccc23)sc2c1CCCC2 : 85
Cc1ccc(C(=O)Nc2cccc(C(F)(F)F)c2)cc1Nc1cncc(C(N)=O)c1 : 100

[in] Look up kinase still bound, per cent of control: `CCCS(=O)(=O)Nc1ccc(F)c(C(=O)c2c[nH]c3ncc(-c4ccc(Cl)cc4)cc23)c1F`
[out] 100

[in] Continue with COc1cc(C(=O)NC2CCN(C)CC2)ccc1Nc1ncc2c(n1)N(C1CCCC1)C(C)CC(=O)N2C (centres undefined)
[out] 17

* * *

# experimental target: JAK2 JH1 catalytic (human)
# measurement notes: KINOMEscan competition binding
# measurement parameters: compound 10.0 µM
readout: kinase still bound, per cent of control
A complete answer gives the number followed by the unit.

# count of solved cases: 2
C=CC(=O)Nc1cccc(Nc2nc(N[C@H]3CC[C@H](N(C)C)CC3)nc3c2ncn3C(C)C)c1 : 9.1%
O=C1Nc2ccc(I)cc2/C1=C/c1cc(Br)c(O)c(Br)c1 : 57%

[in] Which measured kinase still bound, per cent of control belongs to `Cc1cc([C@@H](C)Nc2ccccc2C(=O)O)c2nc(N3CCOCC3)cc(=O)n2c1` , tested on JAK2 JH1 catalytic (human)?
[out] 62%

[in] Continue with `Cc1ccc2nc(NCCN)c3ncc(C)n3c2c1`
[out] 100%

[in] Continue with `OCCCNc1cc(-c2ccnc(Nc3cccc(Cl)c3)n2)ccn1`
[out] 100%

* * *

Each record here notes measured kinase still bound, per cent of control.
# experimental target: GRK7 (human) (UniProt Q8WTQ7)
# Sequence (Q8WTQ7 whole entry, looked up): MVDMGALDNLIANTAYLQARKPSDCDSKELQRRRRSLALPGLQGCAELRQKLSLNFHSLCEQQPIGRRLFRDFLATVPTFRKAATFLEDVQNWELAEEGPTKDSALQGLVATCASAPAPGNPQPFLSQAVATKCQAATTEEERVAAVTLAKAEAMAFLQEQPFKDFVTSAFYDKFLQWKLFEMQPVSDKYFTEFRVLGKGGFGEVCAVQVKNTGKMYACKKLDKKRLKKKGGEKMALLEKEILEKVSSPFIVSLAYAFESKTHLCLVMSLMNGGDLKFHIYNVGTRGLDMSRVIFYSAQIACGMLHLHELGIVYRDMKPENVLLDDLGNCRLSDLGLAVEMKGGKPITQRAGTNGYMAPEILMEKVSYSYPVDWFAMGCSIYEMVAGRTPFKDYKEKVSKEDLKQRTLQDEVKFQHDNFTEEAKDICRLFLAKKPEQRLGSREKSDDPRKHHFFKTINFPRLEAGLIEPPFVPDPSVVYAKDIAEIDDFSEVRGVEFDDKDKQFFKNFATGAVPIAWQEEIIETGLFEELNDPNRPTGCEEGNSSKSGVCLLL
# measurement notes: KINOMEscan competition binding
# measurement parameters: compound 10.0 µM
The answer is to be given in %; state only the numeric part.

# count of solved cases: 5
Cc1cc([C@@H](C)Nc2ccccc2C(=O)O)c2nc(N3CCOCC3)cc(=O)n2c1 : 57
C[C@@H](Oc1cc(-n2cnc3ccc(CN4CCN(C)CC4)cc32)sc1C(N)=O)c1ccccc1C(F)(F)F : 33
Cc1ccc2nc(NCCN)c3ncc(C)n3c2c1 : 100
O=C(O)c1ccc(Nc2ncc3c(n2)-c2ccc(Cl)cc2C(c2c(F)cccc2F)=NC3)cc1 : 31
COc1cc(N2CCN(C)CC2)ccc1Nc1nc(N)c(C(=O)c2c(Cl)cccc2Cl)s1 : 100

[in] Which measured kinase still bound, per cent of control belongs to `CN(C)C/C=C/C(=O)Nc1cccc(Nc2ncc3c(n2)N(C)c2ccccc2C(=O)N3C)c1` , tested on GRK7 (human) (UniProt Q8WTQ7)?
[out] 100

[in] Continue with `CCC(=O)N1CCN(c2ccc(-n3c(=O)ccc4cnc5ccc(-c6cnc7ccccc7c6)cc5c43)cc2C(F)(F)F)CC1`
[out] 100

[in] Continue with `CCN1CCN(Cc2ccc(Nc3ncc4c(n3)N(C)c3ccccc3C(=O)N4C)cc2C(F)(F)F)CC1`
[out] 73

[in] Continue with `Cn1c(=O)n(-c2ccc(C(C)(C)C#N)cc2)c2c3cc(-c4cnc5ccccc5c4)ccc3ncc21`
[out] 100

[in] Continue with `C=CC(=O)Nc1cc(NC(=O)c2ccc(C)c(NC(=O)c3ccno3)c2)cc(C(F)(F)F)c1`
[out] 100

[in] Continue with `OCCCNc1cc(-c2ccnc(Nc3cccc(Cl)c3)n2)ccn1`
[out] 100

[in] Continue with `O=C(NOC[C@H](O)CO)c1ccc(F)c(F)c1Nc1ccc(I)cc1F`
[out] 100

[in] Continue with `O=C1Nc2ccc(I)cc2/C1=C/c1cc(Br)c(O)c(Br)c1`
[out] 73

[in] Continue with `COc1cc(C(=O)NC2CCN(C)CC2)ccc1Nc1ncc2c(n1)N(C1CCCC1)CCC(=O)N2C(C)C`
[out] 100

[in] Continue with `Cc1ccc(NC(=O)c2cccc(C(C)(C)C#N)c2)cc1Nc1ccc2ncn(C)c(=O)c2c1`
[out] 91

[in] Continue with `Nc1ccc(-c2ccc3ncc4ccc(=O)n(-c5cccc(C(F)(F)F)c5)c4c3c2)cn1`
[out] 60

[in] Continue with `CCOc1cc2ncc(C#N)c(Nc3ccc(OCc4ccccn4)c(Cl)c3)c2cc1NC(=O)/C=C/CN(C)C`
[out] 100

[in] Continue with `CCCS(=O)(=O)Nc1ccc(F)c(C(=O)c2c[nH]c3ncc(-c4ccc(Cl)cc4)cc23)c1F`
[out] 93

* * *

Each record here notes measured kinase still bound, per cent of control.
# experimental target: CDKL2 (human)
# measurement notes: KINOMEscan competition binding
# measurement parameters: compound 10.0 µM
The answer is to be given in %; state only the numeric part.

# count of solved cases: 5
O=C(NC1CC1)c1cccc(-c2ccc3c(NC(=O)C4CC4)n[nH]c3c2)c1 : 8.6
COc1cc(N2CCN(C)CC2)ccc1Nc1nc(N)c(C(=O)c2c(Cl)cccc2Cl)s1 : 93
Cc1ccc2nc(NCCN)c3ncc(C)n3c2c1 : 82
O=C1Nc2ccc(I)cc2/C1=C/c1cc(Br)c(O)c(Br)c1 : 82
OCCCNc1cc(-c2ccnc(Nc3cccc(Cl)c3)n2)ccn1 : 14

[in] Look up kinase still bound, per cent of control: `C=CC(=O)Nc1cccc(Oc2nc(Nc3ccc(N4CCN(C)CC4)cc3OC)ncc2Cl)c1`
[out] 100

[in] Continue with `Cn1c(=O)n(-c2ccc(C(C)(C)C#N)cc2)c2c3cc(-c4cnc5ccccc5c4)ccc3ncc21`
[out] 28
